Listing of entries alongside the reported inhibition.
SYSTEM_UNDER_TEST: Thioredoxin reductase (Homo sapiens) (UniProt Q16881+Q9NNW7+Q86VQ6)
TEST_PROTOCOL: Inhibition of human TrxR at 100 uM by spectrophotometry
Type: protein assay
A number alone suffices; assume %.

Some entries whose results are on file:
Fc1cccc(Cl)c1CNc1ccc(N2CCCCC2)cc1 : 4.6
NC1=C(c2nc(-c3ccccc3)cs2)C(=O)CN1c1ccc(S(N)(=O)=O)cc1 : 0
c1ccc2sc(CNc3ccc(N4CCCCC4)cc3)nc2c1 : 17.1
O=C(O)[C@H](Cc1cc2ccccc2[nH]1)NCc1c[nH]c2ccccc12 : 10.4
COc1ccc2nc(C)cc(Nc3ccc(O)cc3)c2c1 : 31.6

In: Query (compound): CC(c1c[nH]nc1-c1ccccc1)N1CCC(CCC(=O)Nc2ccccc2)CC1 (stereo not given) ; field requested: inhibition
Out: 0

In: So what does the record say about inhibition for C=CCc1cccc(/C=N/NC(=O)CCC2C(=O)NN=C2C)c1O (stereo not given) ?
Out: 0

In: Query: inhibition; subject: "Nc1nc(-c2cc3ccc(O)cc3oc2=O)cs1"
Out: 0

In: I have this compound here, "CSCCNC1CCN(c2ccc(NC(=O)CCCCc3ccccc3)cc2)CC1" , and I need its recorded inhibition.
Out: 0

In: For the compound shown here, "Nc1ccc(N2CCCCC2)cc1" , give the reported inhibition.
Out: 0

###

TEST_PROTOCOL: Selectivity index, ratio of IC50 for human TrxR to IC50 for Mycobacterium tuberculosis TrxR
METRIC_NAME: Ratio IC50

Some solved entries appear below for comparison.
COc1ccc2nc(C)cc(Nc3ccc(O)cc3)c2c1 : > 8
NC1=C(c2nc(-c3ccccc3)cs2)C(=O)CN1c1ccc(S(N)(=O)=O)cc1 : > 2
Fc1cccc(Cl)c1CNc1ccc(N2CCCCC2)cc1 : > 10
c1ccc2sc(CNc3ccc(N4CCCCC4)cc3)nc2c1 : > 10
CSCCNC1CCN(c2ccc(NC(=O)CCCCc3ccccc3)cc2)CC1 : > 3

In: // returns reported Ratio IC50 for input "Nc1ccc(N2CCCCC2)cc1"
Out: > 10

###

SYSTEM_UNDER_TEST: Thioredoxin reductase (Mycobacterium tuberculosis) (UniProt P9WHH1)
TEST_PROTOCOL: Inhibition of Mycobacterium tuberculosis TrxR at 5 uM after 10 mins by microplate reader analysis
Consider the following compounds and their measured inhibition readings.
Number only, in %; omit the unit.

CC(c1c[nH]nc1-c1ccccc1)N1CCC(CCC(=O)Nc2ccccc2)CC1 (stereo not drawn) : 38

Let us move to another entry and its inhibition.
In: Give the measured inhibition of "O=C(CCCCc1ccccc1)Nc1ccc(N2CCC(NCCn3cccn3)CC2)cc1" .
Out: 14.7

###

SYSTEM_UNDER_TEST: UniProtKB P9WHH1
Sequence (whole entry): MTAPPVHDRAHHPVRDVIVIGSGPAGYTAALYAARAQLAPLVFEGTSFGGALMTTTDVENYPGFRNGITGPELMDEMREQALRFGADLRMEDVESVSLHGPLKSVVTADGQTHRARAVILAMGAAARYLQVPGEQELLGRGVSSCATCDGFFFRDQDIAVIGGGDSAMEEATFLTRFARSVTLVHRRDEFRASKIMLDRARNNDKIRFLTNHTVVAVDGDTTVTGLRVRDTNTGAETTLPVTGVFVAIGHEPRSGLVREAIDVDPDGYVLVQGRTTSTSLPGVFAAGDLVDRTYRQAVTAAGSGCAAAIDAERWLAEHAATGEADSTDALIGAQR
TEST_PROTOCOL: Inhibition of Mycobacterium tuberculosis TrxR at 45 uM after 10 mins by microplate reader analysis
Each entry below carries its reported inhibition.
Please reply with the bare figure in % and do not write the unit itself.

# example entries with known answers
CC(c1c[nH]nc1-c1ccccc1)N1CCC(CCC(=O)Nc2ccccc2)CC1 (configuration not stated) : 29.8
Nc1nc(-c2cc3ccc(O)cc3oc2=O)cs1 : 36.4
COc1ccc2nc(C)cc(Nc3ccc(O)cc3)c2c1 : 68
O=C(COc1ccccc1)Nc1ccc(N2CCC(NCc3cccc(-n4cccn4)c3)CC2)cc1 : 22.1
CSCCNC1CCN(c2ccc(NC(=O)CCCCc3ccccc3)cc2)CC1 : 28
O=C(CCCCc1ccccc1)Nc1ccc(N2CCC(NCCn3cccn3)CC2)cc1 : 24
Nc1ccc(N2CCCCC2)cc1 : 55
c1ccc2sc(CNc3ccc(N4CCCCC4)cc3)nc2c1 : 67
O=C(O)[C@H](Cc1cc2ccccc2[nH]1)NCc1c[nH]c2ccccc12 : 31
NC1=C(c2nc(-c3ccccc3)cs2)C(=O)CN1c1ccc(S(N)(=O)=O)cc1 : 25

In: Entry under review: C=CCc1cccc(/C=N/NC(=O)CCC2C(=O)NN=C2C)c1O (configuration not stated) . Reported inhibition?
Out: 26

In: Suppose we examine the compound "Fc1cccc(Cl)c1CNc1ccc(N2CCCCC2)cc1" ; what inhibition value has been reported?
Out: 58.7

###

SYSTEM_UNDER_TEST: Thioredoxin reductase (Mycobacterium tuberculosis) (UniProt P9WHH1)
Sequence (whole entry): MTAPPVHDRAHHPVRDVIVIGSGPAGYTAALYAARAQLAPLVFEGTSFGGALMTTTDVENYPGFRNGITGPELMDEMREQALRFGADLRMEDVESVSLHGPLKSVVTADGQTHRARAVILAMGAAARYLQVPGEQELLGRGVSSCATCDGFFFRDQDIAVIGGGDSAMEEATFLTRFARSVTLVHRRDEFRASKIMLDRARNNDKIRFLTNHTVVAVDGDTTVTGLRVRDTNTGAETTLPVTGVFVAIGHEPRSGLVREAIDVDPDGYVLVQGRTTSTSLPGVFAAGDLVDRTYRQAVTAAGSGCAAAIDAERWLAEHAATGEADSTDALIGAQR
TEST_PROTOCOL: Inhibition of Mycobacterium tuberculosis TrxR at 1.67 uM after 10 mins by microplate reader analysis
Below, each of the compounds is paired with its reported inhibition value.
The reply should be a number in %, with the unit left off.

C=CCc1cccc(/C=N/NC(=O)CCC2C(=O)NN=C2C)c1O (stereo not drawn) : 31.7
COc1ccc2nc(C)cc(Nc3ccc(O)cc3)c2c1 : 25.6

In: Which inhibition value belongs to "Nc1nc(-c2cc3ccc(O)cc3oc2=O)cs1" ?
Out: 10.6

In: Return reported inhibition; argument: "CSCCNC1CCN(c2ccc(NC(=O)CCCCc3ccccc3)cc2)CC1"
Out: 27

In: Endpoint output: inhibition of "Nc1ccc(N2CCCCC2)cc1" . Value?
Out: 9.5

###

The entries below are paired with their reported inhibition.
SYSTEM_UNDER_TEST: Thioredoxin reductase (Mycobacterium tuberculosis) (UniProt P9WHH1)
TEST_PROTOCOL: Inhibition of Mycobacterium tuberculosis TrxR at 15 uM after 10 mins by microplate reader analysis
Value expressed in %; do not type the unit.

Solved cases (5 shown):
CSCCNC1CCN(c2ccc(NC(=O)CCCCc3ccccc3)cc2)CC1 : 33.7
O=C(CCCCc1ccccc1)Nc1ccc(N2CCC(NCCn3cccn3)CC2)cc1 : 17.5
NC1=C(c2nc(-c3ccccc3)cs2)C(=O)CN1c1ccc(S(N)(=O)=O)cc1 : 12.8
O=C(COc1ccccc1)Nc1ccc(N2CCC(NCc3cccc(-n4cccn4)c3)CC2)cc1 : 18.2
C=CCc1cccc(/C=N/NC(=O)CCC2C(=O)NN=C2C)c1O (stereo not drawn) : 31.7

In: Given "Nc1nc(-c2cc3ccc(O)cc3oc2=O)cs1" , state its recorded inhibition.
Out: 19.7

In: Find the recorded inhibition belonging to "Fc1cccc(Cl)c1CNc1ccc(N2CCCCC2)cc1" and report it.
Out: 51.7

In: Which inhibition value belongs to CC(c1c[nH]nc1-c1ccccc1)N1CCC(CCC(=O)Nc2ccccc2)CC1 (stereo not drawn) ?
Out: 34.3

In: Item "Nc1ccc(N2CCCCC2)cc1" has what recorded inhibition?
Out: 35.7

In: GET /values?readout=inhibition&item= "O=C(Nc1ccc(N2CCC(NCCOc3cccnc3)CC2)cc1)c1cnccn1"
Out: 16.3

In: Quick one: inhibition for "COc1ccc2nc(C)cc(Nc3ccc(O)cc3)c2c1" ?
Out: 51.6

In: Sample "c1ccc2sc(CNc3ccc(N4CCCCC4)cc3)nc2c1" — what was its inhibition?
Out: 44.4

In: Entry "O=C(O)[C@H](Cc1cc2ccccc2[nH]1)NCc1c[nH]c2ccccc12" : reported inhibition = ?
Out: 43.3

###

# Ratio IC50 listing for each entry below
TEST_PROTOCOL: Selectivity index, ratio of IC50 for human TrxR to IC50 for Mycobacterium tuberculosis TrxR

O=C(O)[C@H](Cc1cc2ccccc2[nH]1)NCc1c[nH]c2ccccc12 : > 10
CC(c1c[nH]nc1-c1ccccc1)N1CCC(CCC(=O)Nc2ccccc2)CC1 (centres undefined) : > 20
Nc1nc(-c2cc3ccc(O)cc3oc2=O)cs1 : > 3

Now for the compound whose Ratio IC50 we want.
In: Need Ratio IC50, item C=CCc1cccc(/C=N/NC(=O)CCC2C(=O)NN=C2C)c1O (centres undefined)
Out: > 10
